- ASSAY_METHOD_TEXT: 4-week repeat-dose toxicity/TK study in rats
- Type: in vivo, Sprague Dawley rats
- CONDITION_DETAILS: male, Sprague Dawley (Crl: CD (SD)), rat, plasma, po, 25 mg/kg/day, day 28, PO 25 mg/kg/day, Male
ASSAY_METRIC: AUC(0-t)
Be sure to follow the number with its unit.

Requested read-out: AUC(0-t). Entry: C[C@]12CC[C@@H]3c4ccc(B(O)O)cc4C[C@@H](CCCCCCCCC[S+]([O-])CCCC(F)(F)C(F)(F)F)[C@H]3[C@@H]1CC[C@@H]2O (stereo partly shown) 4750 ng·h/mL

---

- ASSAY_METHOD_TEXT: 7-day repeated-dose PK in rats
- Type: in vivo, Sprague Dawley rats
- CONDITION_DETAILS: female, Sprague Dawley, rat, plasma, po, 400 mg/kg/day, day 7, PO 400 mg/kg/day, F
ASSAY_METRIC: AUC(0-t)
Be sure to follow the number with its unit.

Requested read-out: AUC(0-t). Entry: C[C@]12CC[C@@H]3c4ccc(B(O)O)cc4C[C@@H](CCCCCCCCC[S+]([O-])CCCC(F)(F)C(F)(F)F)[C@H]3[C@@H]1CC[C@@H]2O (stereo partly shown) 37100 ng·h/mL

---

- ASSAY_METHOD_TEXT: Plasma protein binding by equilibrium dialysis, dog
- Format: in vitro ADME
- CONDITION_DETAILS: plasma (EDTA-K2 as anticoagulant), pH 7.4, 1 μM
ASSAY_METRIC: recovery at 6 h, 1 μM

Requested read-out: recovery at 6 h, 1 μM. Entry: C[C@]12CC[C@@H]3c4ccc(B(O)O)cc4C[C@@H](CCCCCCCCC[S+]([O-])CCCC(F)(F)C(F)(F)F)[C@H]3[C@@H]1CC[C@@H]2O (stereo partly shown) < 64.9%

---

- ASSAY_METHOD_TEXT: 4-week repeat-dose toxicity/TK study in dogs
- Format: in vivo, beagle dogs
- CONDITION_DETAILS: female, beagle, dog, plasma, po, 200 mg/kg/day, day 28, PO 200 mg/kg/day, F
ASSAY_METRIC: Cmax (ng/mL)
One number for each entry, in ng/mL.

Requested read-out: Cmax. Entry: C[C@]12CC[C@@H]3c4ccc(B(O)O)cc4C[C@@H](CCCCCCCCC[S+]([O-])CCCC(F)(F)C(F)(F)F)[C@H]3[C@@H]1CC[C@@H]2O (stereo partly shown) 1810

---

- System: CYP2B6
- ASSAY_METHOD_TEXT: CYP induction (enzyme activity) in cryopreserved human hepatocytes, CYP2B6
- CONDITION_DETAILS: human, plated cryopreserved human hepatocytes, Fold Induction, donor two, 15 µM
ASSAY_METRIC: fold induction at 72 h, 15 µM

Requested read-out: fold induction at 72 h, 15 µM. Entry: C[C@]12CC[C@@H]3c4ccc(B(O)O)cc4C[C@@H](CCCCCCCCC[S+]([O-])CCCC(F)(F)C(F)(F)F)[C@H]3[C@@H]1CC[C@@H]2O (stereo partly shown) 6.4

---

- ASSAY_METHOD_TEXT: Metabolic stability in human hepatocytes
- Assay type: in vitro ADME
- CONDITION_DETAILS: read-out: Estimated In Vitro t1/2
ASSAY_METRIC: half-life at 1 μM
Be sure to follow the number with its unit.

Requested read-out: half-life at 1 μM. Entry: C[C@]12CC[C@@H]3c4ccc(B(O)O)cc4C[C@@H](CCCCCCCCC[S+]([O-])CCCC(F)(F)C(F)(F)F)[C@H]3[C@@H]1CC[C@@H]2O (stereo partly shown) 34.9 min
